System: A498 renal
assay procedure: NCI-60 one-dose screen, 48 h
condition parameters: 10 µM unless noted
The panel holds about 83,000 compounds, 20% with a hit somewhere; the sample as a whole holds those more often. Calls of active or inactive are those of the source. How the source made its calls: active means growth percent below 10; inactive means the rest.
Possible outcomes: true = active, false = inactive

compound=c1ccc2c(c1)ncn2-c1nc2ccccc2n2c1nc1ccccc12 class_assignment=false
compound=COc1ccc(OC)c(C(=O)Nc2cccc(-c3cc(=O)c4ccccc4o3)c2)c1 class_assignment=false
compound=NC(=S)c1csc(CCNC(=O)c2ccccc2)n1 class_assignment=false
compound=C[C@@H]1C(=O)N(C[C@@H](Cc2ccccc2)NC(=O)OCc2ccccc2)[C@]1(Cc1ccccc1)C(=O)OCc1ccccc1 class_assignment=true
compound="C=C1c2c(C)nn(-c3ccc(NC(C)=O)cc3)c2N(C)C23CC1C1(C)c4c(C)nn(-c5ccc(NC(C)=O)cc5)c4N(C)C(C)(CC12)C3 (centres undefined)" class_assignment=false
compound=Cn1cc(-c2ccc3nc(-c4ccc(CC(=O)Nc5cc(C(C)(C)C)no5)cc4)cnc3c2)cn1 class_assignment=true
compound=Cc1c2c(cn1Cc1ccccc1)CCc1cn(C)nc1-2 class_assignment=false
compound="O=C(CC1Sc2ccccc2NC1=O)NNc1ccc(F)cc1 (centres undefined)" class_assignment=false
compound=Cc1cc(NS(=O)(=O)c2ccccc2)c(OS(=O)(=O)c2ccccc2)cc1C class_assignment=false

* * *

Test system: SR leukemia
assay procedure: NCI-60 one-dose screen, 48 h
condition parameters: 10 µM unless noted
Compounds without any hit were thinned out: in the full panel of roughly 83,000, 20% have a hit. The source made the active and inactive calls. How the source made its calls: active means growth percent below 10; inactive means the rest.
Possible outcomes: active, inactive

compound="COC1=CC(c2ccc[nH]2)=N/C1=C\\c1[nH]c(C)c(C(=O)OCCn2cc(CCC[C@@H]3Cc4cc(O)ccc4C4CC[C@]5(C)[C@@H](O)CC[C@H]5C43)nn2)c1C (some centres undefined)" class_assignment=inactive
compound=CC(C)c1ccc(C(=O)OC(=O)c2ccc(C(C)C)cc2)cc1 class_assignment=inactive
compound=Cn1cc(-c2ccc3nc(-c4ccc(CC(=O)Nc5cc(C(C)(C)C)no5)cc4)cnc3c2)cn1 class_assignment=inactive
compound=CCCCCCCSc1ccc(C(=O)O)cc1 class_assignment=inactive
compound=CC(=O)NCC(=O)Nc1ccc(-c2nnc3ccccn23)nc1.CC(=O)NCC(=O)Nc1ccc(-c2nnc3ccccn23)nc1.[Pt+2] class_assignment=inactive
compound=CN1CCN(c2ccc(Nc3ncc(Cl)c(NC[C@@H]4CCCO4)n3)cc2)CC1 class_assignment=active
compound=Cc1ccc(S(=O)(=O)N(CC[C@@H]2C[C@H]2c2cc3ccccc3o2)C(=O)NC2CCCCC2)cc1 class_assignment=inactive
compound="O=C1CSC(c2ccccc2)N1c1ccccc1 (centres undefined)" class_assignment=inactive
compound=O=c1oc2ccc(Cl)cc2cc1-c1cs/c(=N/N=C\c2ccc(Cl)cc2)n1/N=C/c1ccc(Cl)cc1 class_assignment=inactive

* * *

System: SF-268 CNS
assay procedure: NCI-60 one-dose screen, 48 h
condition parameters: 10 µM unless noted
This is part of a sample that, as a whole, favours compounds with a hit. Of some 83,000 tested, about 20% had one in any assay. Activity calls are given as the source filed them. How the source made its calls: active means growth percent below 10; inactive means the rest.
Possible outcomes: true (1) for active, false (0) for inactive

compound=COc1ccc(Oc2nc(Nc3ccc(N4CCCCC4)nc3)ncc2NC(=O)c2cc(OC)cc(OC)c2)cc1 class_assignment="false (0)"
compound="CN1C[C@@H](c2ccc(Cl)cc2)[C@]2(NC(=S)N(c3ccccc3)C2=O)[C@@]12C(=O)NC1C=CC(Br)=C[C@H]12 (stereo partly drawn)" class_assignment="false (0)"
compound="CC(=O)Nc1cccc(C2=CC(c3ccc(C)cc3)n3ncnc3N2)c1 (stereo not drawn)" class_assignment="false (0)"
compound=C=C1C(=O)O[C@H]2[C@H]1CC/C(C(=O)NCCCCCCCCNC(=O)/C1=C/CC[C@@]3(C)O[C@H]3[C@H]3OC(=O)C(=C)[C@@H]3CC1)=C\CC[C@@]1(C)O[C@@H]21 class_assignment="false (0)"
compound=Cc1cc(=O)[nH]c(N/N=C/c2cc(Br)ccc2O)n1 class_assignment="false (0)"
compound=C=CC(=O)N[C@@H](Cc1ccc(-c2cc(Cl)cc(Cl)c2)cc1)[C@@H](O)[C@H](O)C(=O)O class_assignment="false (0)"
compound=Cc1c(C(=O)O)nnn1-c1nccs1 class_assignment="false (0)"
compound="COc1ccc(C2CC(c3ccc4ccccc4c3)=NN2c2nc(O)c(C3=c4cc(Cl)ccc4=NC3=O)s2)cc1 (stereo not drawn)" class_assignment="true (1)"

* * *

System: ACHN renal
assay procedure: NCI-60 one-dose screen, 48 h (100 = growth as untreated, 0 = no growth, -100 = all killed)
condition parameters: 10 µM unless noted
The panel holds about 83,000 compounds, 20% with a hit somewhere; the sample as a whole holds those more often.
endpoint: growth (%)

molecule=O=C(O)c1ccccc1C(=O)Nc1ccc(Cl)cc1 tested_system="ACHN renal" value_measured=94.9
molecule="O=C(c1ccccc1)c1ccc(N2C(=O)C3C4c5ccccc5C(/C=C/C(=O)c5ccccn5)(c5ccccc54)C3C2=O)cc1 (stereo not drawn)" tested_system="ACHN renal" value_measured=-25.4
molecule=Cc1c(C(=O)O[C@H]2[C@@H]3[C@H](C)CC[C@H]3[C@]3(C)O[C@@]2(C2CCCCC2)C[C@H]3OC(=O)CO)ccc2ccccc12 tested_system="ACHN renal" value_measured=-36.4
molecule=O=C(NCc1cn(Cc2cccc(Oc3ccccc3)c2)nn1)c1cccnc1NCc1ccc(Cl)cc1 tested_system="ACHN renal" value_measured=41.9
molecule=N#Cc1c(NC(=O)c2cccc(C(F)(F)F)c2)sc2c1CCC(=O)C2 tested_system="ACHN renal" value_measured=-93.8
molecule=CC(=O)c1cc2c(o1)C(=O)c1ccccc1C2=O tested_system="ACHN renal" value_measured=-98.3
molecule=CN(CCC(=O)/C(=C\c1ccccc1)c1ccc(Cl)cc1)Cc1ccccc1 tested_system="ACHN renal" value_measured=-43.3
molecule=O=C(/C=C/c1ccccc1)c1ccc2ccccc2c1 tested_system="ACHN renal" value_measured=16.2
molecule=Oc1[nH]c2ccccc2c1/C=c1/cc2c(c(-c3ccc(F)cc3)n1)=Nc1ccccc1-2 tested_system="ACHN renal" value_measured=-43.4
molecule=COC(=O)CCCNC(=O)C(=O)c1c(O)c(O)c(C(C)C)c2cc(C)c(-c3c(C)cc4c(C(C)C)c(O)c(O)c(C(=O)C(=O)NCCCC(=O)OC)c4c3O)c(O)c12 tested_system="ACHN renal" value_measured=3.45
molecule=COc1ccc(OC)c(Nc2nc3nonc3nc2Nc2cc(OC)ccc2OC)c1 tested_system="ACHN renal" value_measured=-33.4
molecule="CN1C(=O)CCC(N2C(=O)c3cccc(NCCOCCOCCNC(=O)c4cc5c(o4)C(=O)c4ccccc4C5=O)c3C2=O)C1=O (stereo not drawn)" tested_system="ACHN renal" value_measured=8.82
molecule="CO/C(=C1/NC(=O)C(Cc2ccc(O)c(Br)c2)N(C)C(=O)C(C)NC(=O)CCC/C=C(\\C)CCC(C)OC1=O)c1ccccc1 (stereo not drawn)" tested_system="ACHN renal" value_measured=-34.7
molecule="Nc1nc(I)c2ncn(C3OC(CO)C(O)C3O)c2n1 (stereo not drawn)" tested_system="ACHN renal" value_measured=111
molecule=CN1CCN(c2ccc(Nc3ncc(Cl)c(NC[C@@H]4CCCO4)n3)cc2)CC1 tested_system="ACHN renal" value_measured=1.78
molecule=CCCCN1CCN(c2ccc3nc(-c4ccc5nc(-c6cc(OC)c(OC)c(OC)c6)[nH]c5c4)[nH]c3c2)CC1 tested_system="ACHN renal" value_measured=86.8
molecule=C=C1C(=O)O[C@H]2[C@H]1CC/C(COC(=O)/C=C/C(=O)NCc1ccc(Cn3c(=O)sn(-c4ccccc4)c3=O)cc1)=C\CC[C@@]1(C)O[C@@H]21 tested_system="ACHN renal" value_measured=-47.3
molecule=Cc1nc(Nc2ccc(N)cc2)c2ccccc2n1 tested_system="ACHN renal" value_measured=80.1

* * *

Tested on: LOX IMVI melanoma
assay procedure: NCI-60 one-dose screen, 48 h (100 = growth as untreated, 0 = no growth, -100 = all killed)
condition parameters: 10 µM unless noted
About 83,000 compounds went through this panel and 20% of them were active in at least one assay; those are over-represented in the sample as a whole. The source made the active and inactive calls. Rule for the calls: active = growth percent below 10; inactive = the rest.
Reported growth by item:
endpoint: growth

compound=O=c1[nH]nc(-c2ccc(Cl)cc2)cc1Cc1ccccc1 value_measured="93.4% (inactive)"
compound=O=C(CCl)N1c2cccc3cccc(c23)N(C(=O)CCl)C1c1cn(-c2ccccc2)nc1-c1cccc([N+](=O)[O-])c1 value_measured="26.6% (inactive)"
compound=CC(=O)NCC(=O)Nc1ccc(-c2nnc3ccccn23)nc1.CC(=O)NCC(=O)Nc1ccc(-c2nnc3ccccn23)nc1.[Pt+2] value_measured="106% (inactive)"
compound="O=C1CSC(c2ccc(O)cc2)N1c1nnc(Cn2cnnc2)o1 (stereo not given)" value_measured="99.9% (inactive)"
compound=C[C@@H](C[C@H](CCOCc1cccnc1)c1ccccc1)c1cc2ccccc2o1 value_measured="95.8% (inactive)"
compound=Clc1ccc(/C=C/c2nc(Nc3ccc(Cl)cc3)c3ccccc3n2)cc1 value_measured="97.1% (inactive)"
compound=O=S(=O)(Cc1ccccc1)c1nc2ccccc2s1 value_measured="10.8% (inactive)"
compound=C=CC(=O)N[C@@H](Cc1ccc(-c2cc(Cl)cc(Cl)c2)cc1)[C@@H](O)[C@H](O)C(=O)O value_measured="98.4% (inactive)"
compound=C=C1C(=O)O[C@H]2[C@H]1CC/C(COC(=O)/C=C\C(=O)NCc1ccc(Cn3c(=O)sn(CCCC)c3=O)cc1)=C\CC[C@@]1(C)O[C@@H]21 value_measured="-83.5% (active)"
compound=CNC=O value_measured="97.1% (inactive)"
compound="CCOc1cc(C2C(Cl)C(=O)N2n2cnnc2)ccc1O (stereo not given)" value_measured="101% (inactive)"
compound=CCCCCCCCN(CCCCCCCC)C(=N)c1ccnc2ccccc12 value_measured="-100% (active)"
compound=CN(C)CCn1cc(-c2ccc3c(Nc4ccc(CC(=O)Nc5cccc(F)c5)cc4)ncnc3c2)cn1 value_measured="-50.2% [30 µM] (active)"
compound=COc1cc(-c2ccc(-c3ccc(C(=N)N)nc3)s2)cc(OC)c1OC value_measured="-14.3% (active)"
compound=O=C1N/C(=N/O)S/C1=C/c1cn(-c2ccccc2)nc1-c1ccccc1 value_measured="68.6% (inactive)"
compound=COc1cccc(/C=C2\COc3ccc(O)cc3C2=O)c1OC value_measured="-19.7% (active)"
compound=COc1ccc(NC(=O)C(=O)c2c[nH]c3ccc(F)cc23)cc1 value_measured="105% (inactive)"
compound=NC(=S)c1csc(CCNC(=O)c2ccccc2)n1 value_measured="110% (inactive)"
compound=C=C1C(=O)O[C@H]2[C@H]1CC/C(COC(=O)/C=C\C(=O)NCc1ccc(Cn3c(=O)sn(-c4ccc(OC)cc4)c3=O)cc1)=C\CC[C@@]1(C)O[C@@H]21 value_measured="-88.6% (active)"
compound=CCN(CC)CCCNC(=O)c1ccc(N)cc1O value_measured="90.6% (inactive)"
